Values compiled from PubChem BioAssay.

method description: basal S. cerevisiae growth modulation, no modifier, primary screen, OD600, strain BY4716, 24 h, basal condition (AID 1173)
assay conditions: OD600, 24 h, higher = more signal, called active from +8 up or from −8 down
property measured: z-score
Just the number, please, no unit after it.

As a guide, the following entries are already answered.
>  <compound>
COc1ccccc1CN1C(=O)c2ccccc2[C@@H](C(=O)NCCCN(C)C)[C@@H]1c1ccc(CO)cc1

>  <z-score>
-1.37

$$$$
>  <compound>
COc1ccc(NN2C(C(O)c3cc(C(F)(F)F)cc(C(F)(F)F)c3)C=CC3C(=O)N(C4CCCCC4)C(=O)C32)cc1 (stereo not drawn)

>  <z-score>
0.275

$$$$
>  <compound>
C=CCN1C(=O)[C@]2(O[C@H](CCO)[C@@H]([Si](C)(C)c3ccc(OC)cc3)[C@@H]2C)c2ccccc21

>  <z-score>
-5.08

$$$$
>  <compound>
O=C1O[C@H](c2ccccc2)[C@H](c2ccccc2)N2[C@H]1[C@@H](C(=O)NC[C@H](O)c1ccccc1)[C@]1(C(=O)Nc3ccc(C#CCCO)cc31)[C@H]2c1ccccc1OCCO

>  <z-score>
0.904

$$$$
>  <compound>
COCCOC(=O)N1C(=O)[C@@]2(c3cc(C#CC4(O)CCCCCC4)ccc31)[C@H](c1ccc(OCCO)cc1)N1[C@H](c3ccccc3)[C@H](c3ccccc3)OC(=O)[C@H]1[C@@H]2C(N)=O

>  <z-score>
0.581

$$$$

Record summary for O=C1O[C@@H](c2ccccc2)[C@@H](c2ccccc2)N2[C@@H](c3ccc(OCCO)cc3)[C@]3(C(=O)Nc4ccc(C#CCCO)cc43)[C@@H](C(=O)Nc3nc4ccccc4s3)[C@H]12 : reported z-score = 0.799

Record summary for C=CCC(OC(C)=O)[C@@H]1[C@@H](N(Cc2cccc3ccccc23)C(=O)c2ccc(-c3ccccc3)cc2)c2cc(OCCCO)ccc2N1C(=O)c1ccc2ccccc2n1 (stereo partly drawn) : reported z-score = 0.493

Record summary for CC(C)C[C@@H]1NC(=O)[C@@H]2C[C@H](C(=O)O)[C@H](c3ccc(O)cc3)N2C1=O : reported z-score = -0.568

Record summary for CCOC(=O)C[C@H]1[C@H](OC(=O)Cc2ccc3c(c2)OCO3)[C@@H](NC(=O)c2ccccc2)c2cc(OCCCO)ccc2N1C(=O)Cc1ccc(OC)cc1 : reported z-score = -0.644

Record summary for C=CC[C@]1(C(=O)NCc2ccccc2)COC(c2ccc(OCCCO)cc2)=N1 : reported z-score = -1.92

Record summary for COCCCNC(=O)[C@@]1(Sc2ccc(C)cc2)CC(=O)N(C2CCCCC2)[C@@H]1c1ccc(CO)cc1I : reported z-score = -0.172

---

Consider the following compounds and their measured z-score readings.
method description: modulators of HCV replicon luciferase signal, primary screen, HCV replication inhibitor project, Huh7 cells, luciferase reporter (AID 1109);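 note: huh7 hepatoma cells harbouring a luciferase neomycin HCV replicon reporter; luciferase luminescence as measure of HCV replicon replication; test concentration not given here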
assay conditions: 48 h, higher = more signal

>  <compound>
CN(C)C(=O)[C@]1(Cc2ccccc2)N=C(c2ccc(OCCCO)cc2)O[C@@H]1c1ccccc1

>  <z-score>
-1.88

$$$$
>  <compound>
COc1ccc(CCNC(=O)[C@@]2(Sc3ccc(C)cc3)CC(=O)N(C(C)C)[C@@H]2c2ccc(CO)cc2)cc1

>  <z-score>
-0.887

$$$$
>  <compound>
CC(C)C[C@H]1NC(=O)[C@H](Cc2ccccc2)NC(=O)[C@@]23C(=O)N[C@@H](Cc4ccccc4)C2[C@H](C)[C@@]2(C)O[C@H]2C3/C=C/C/C=C\CNC1=O (stereo not given in full)

>  <z-score>
-2.09

$$$$
>  <compound>
COC(=O)[C@@]1(Cc2ccc(F)cc2)[C@H]2c3cc(C(=O)N(C)C)n(CCO)c3C[C@H]2CN1C(=O)c1ccccc1

>  <z-score>
-0.896

$$$$
>  <compound>
CCOC(=O)C[C@H]1[C@H](OC(=O)c2ccc(C(=O)c3ccccc3)cc2)[C@@H](NC(=O)c2ccc3ccccc3c2)c2cc(OCCCO)ccc2N1C(=O)c1ccc2ccccc2n1

>  <z-score>
-0.415

$$$$
>  <compound>
CC(C)C(=C=CC[C@@H](O)c1ccc(OCCO)cc1)CCO

>  <z-score>
-0.283

$$$$
>  <compound>
CCN(CC)c1ccc(N2CC=CC34O[C@@H]5C=CCOC(=O)[C@@H]5[C@H]3C(=O)N(CCCO)[C@@H]4C2=O)cc1 (stereo not given in full)

>  <z-score>
-0.427

$$$$
>  <compound>
CCOC(=O)C1=CCC(c2cc3ccccc3[nH]2)N(S(=O)(=O)c2ccccc2[N+](=O)[O-])C1 (stereo not given)

>  <z-score>
-1.86

$$$$
>  <compound>
COC(=O)[C@@]1(Cc2ccc(F)cc2)[C@H]2c3cc(C(=O)N4CCCC4)n(CCO)c3C[C@H]2CN1C(=O)c1ccccc1

>  <z-score>
-1

$$$$
>  <compound>
CN1C(=O)C2C=CC(C(O)c3ccc(-c4ccccc4)s3)N(Nc3ccccc3)C2C1=O (stereo not given)

>  <z-score>
-0.593

$$$$

# input for lookup
Record summary for CCCCC=C[C@@H](NC(=O)c1ccc(C(F)(F)F)cc1)c1ccccc1 : reported z-score = -0.887
